Measured fraction unbound of individual entries
# assay: Plasma protein binding in rhesus monkey assessed as unbound fraction
# Type: ADME, cell-free, Macaca mulatta

molecule-smiles: Cc1nc2c([C@H](C)c3ccc(C(F)(F)F)c(F)c3)nn(CCO)c2c(=O)[nH]1
fraction unbound: 0.035
--
molecule-smiles: Cc1nc2c([C@H](C)c3ccc(C(C)(C)C)cc3)nn(CCF)c2c(=O)[nH]1
fraction unbound: 0.016

* * *

# assay: Kinetic solubility of compound at pH 2
# Assay type: physicochemical
# measurement-parameters: buffer, read-out: Kinetic_solubility

molecule-smiles: Cc1nc2c([C@H](C)c3ccc(C(F)(F)F)c(F)c3)nn(CCO)c2c(=O)[nH]1
result-unit: µM
solubility kinetic: 117

molecule-smiles: Cc1nc2c([C@H](C)c3ccc(C(C)(C)C)cc3)nn(CCF)c2c(=O)[nH]1
result-unit: µM
solubility kinetic: 60

* * *

Measured solubility kinetic of individual entries
# assay: Kinetic solubility of compound at pH 7
# Assay type: physicochemical
# measurement-parameters: buffer, read-out: Kinetic_solubility

molecule-smiles: Cc1nc2c([C@H](C)c3ccc(C(C)(C)C)cc3)nn(CCF)c2c(=O)[nH]1
result-unit: µM
solubility kinetic: 20
//
molecule-smiles: Cc1nc2c([C@H](C)c3ccc(C(F)(F)F)c(F)c3)nn(CCO)c2c(=O)[nH]1
result-unit: µM
solubility kinetic: 115

* * *

// UniProt:O76083 IC50 records
Sequence (O76083 whole entry): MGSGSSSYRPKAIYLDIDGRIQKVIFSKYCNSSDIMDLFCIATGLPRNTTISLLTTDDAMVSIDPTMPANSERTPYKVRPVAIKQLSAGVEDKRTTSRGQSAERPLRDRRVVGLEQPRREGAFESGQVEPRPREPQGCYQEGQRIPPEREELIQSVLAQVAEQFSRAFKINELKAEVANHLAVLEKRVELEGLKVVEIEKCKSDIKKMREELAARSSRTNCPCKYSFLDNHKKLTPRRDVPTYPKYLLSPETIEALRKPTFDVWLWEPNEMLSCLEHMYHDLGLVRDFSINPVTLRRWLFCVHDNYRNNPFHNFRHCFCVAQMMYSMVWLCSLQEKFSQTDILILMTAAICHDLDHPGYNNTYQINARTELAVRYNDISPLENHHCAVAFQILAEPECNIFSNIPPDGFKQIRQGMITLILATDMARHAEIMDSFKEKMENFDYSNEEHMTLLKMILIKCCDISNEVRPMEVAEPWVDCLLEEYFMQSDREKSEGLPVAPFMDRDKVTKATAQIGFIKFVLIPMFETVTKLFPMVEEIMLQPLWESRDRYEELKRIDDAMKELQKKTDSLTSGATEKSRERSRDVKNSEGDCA

molecule-smiles: Cc1nc2c([C@H](C)c3ccc(C(C)(C)C)cc3)nn(CCF)c2c(=O)[nH]1
experimental-system: UniProt:O76083
IC50: > 50 µM

molecule-smiles: Cc1nc2c([C@H](C)c3ccc(C(F)(F)F)c(F)c3)nn(CCO)c2c(=O)[nH]1
experimental-system: UniProt:O76083
IC50: > 50 µM

* * *

# assay: Kinetic solubility of compound in FaSSIF
# Assay type: physicochemical
# measurement-parameters: read-out: Kinetic_solubility

molecule-smiles: Cc1nc2c([C@H](C)c3ccc(C(C)(C)C)cc3)nn(CCF)c2c(=O)[nH]1
solubility kinetic [µM]: 177

molecule-smiles: Cc1nc2c([C@H](C)c3ccc(C(F)(F)F)c(F)c3)nn(CCO)c2c(=O)[nH]1
solubility kinetic [µM]: 148

* * *

Measured half-life of individual entries
# assay: Half life in rat
# Assay type: ADME
# measurement-parameters: in vivo

molecule-smiles: Cc1nc2c([C@H](C)c3ccc(C(F)(F)F)c(F)c3)nn(CCO)c2c(=O)[nH]1
half-life (h): 3.1
//
molecule-smiles: Cc1nc2c([C@H](C)c3ccc(C(C)(C)C)cc3)nn(CCF)c2c(=O)[nH]1
half-life (h): 1.4

* * *

# experimental-system: cGMP-specific 3',5'-cyclic phosphodiesterase (Homo sapiens, UniProt O76074)

molecule-smiles: Cc1nc2c([C@H](C)c3ccc(C(C)(C)C)cc3)nn(CCF)c2c(=O)[nH]1
IC50 [µM]: 21

* * *

# experimental-system: PXR (nuclear receptor subfamily 1 group I member 2) (Homo sapiens)
# Sequence (O75469 whole entry): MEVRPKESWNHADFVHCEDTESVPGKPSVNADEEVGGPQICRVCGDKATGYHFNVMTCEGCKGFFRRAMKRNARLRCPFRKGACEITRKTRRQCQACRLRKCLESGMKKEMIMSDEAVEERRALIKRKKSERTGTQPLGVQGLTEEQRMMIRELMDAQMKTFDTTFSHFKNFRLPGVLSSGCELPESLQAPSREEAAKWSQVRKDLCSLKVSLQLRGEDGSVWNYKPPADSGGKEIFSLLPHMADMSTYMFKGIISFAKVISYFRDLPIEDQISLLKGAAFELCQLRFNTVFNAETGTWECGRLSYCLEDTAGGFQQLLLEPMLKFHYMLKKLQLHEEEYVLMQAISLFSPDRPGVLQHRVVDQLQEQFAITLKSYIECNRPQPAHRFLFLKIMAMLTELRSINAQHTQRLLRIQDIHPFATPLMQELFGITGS
# assay: Inhibition of human PXR at 10 uM

molecule-smiles: Cc1nc2c([C@H](C)c3ccc(C(C)(C)C)cc3)nn(CCF)c2c(=O)[nH]1
experimental-system: PXR (nuclear receptor subfamily 1 group I member 2) (Homo sapiens)
inhibition at 10 µM (%): 45

molecule-smiles: Cc1nc2c([C@H](C)c3ccc(C(F)(F)F)c(F)c3)nn(CCO)c2c(=O)[nH]1
experimental-system: PXR (nuclear receptor subfamily 1 group I member 2) (Homo sapiens)
inhibition at 10 µM (%): 16
